Assign Kd to each entry below.
Target: human complement component C5 (human), P01031
Sequence (P01031 19-673 limits assumed, chain 1 of 2): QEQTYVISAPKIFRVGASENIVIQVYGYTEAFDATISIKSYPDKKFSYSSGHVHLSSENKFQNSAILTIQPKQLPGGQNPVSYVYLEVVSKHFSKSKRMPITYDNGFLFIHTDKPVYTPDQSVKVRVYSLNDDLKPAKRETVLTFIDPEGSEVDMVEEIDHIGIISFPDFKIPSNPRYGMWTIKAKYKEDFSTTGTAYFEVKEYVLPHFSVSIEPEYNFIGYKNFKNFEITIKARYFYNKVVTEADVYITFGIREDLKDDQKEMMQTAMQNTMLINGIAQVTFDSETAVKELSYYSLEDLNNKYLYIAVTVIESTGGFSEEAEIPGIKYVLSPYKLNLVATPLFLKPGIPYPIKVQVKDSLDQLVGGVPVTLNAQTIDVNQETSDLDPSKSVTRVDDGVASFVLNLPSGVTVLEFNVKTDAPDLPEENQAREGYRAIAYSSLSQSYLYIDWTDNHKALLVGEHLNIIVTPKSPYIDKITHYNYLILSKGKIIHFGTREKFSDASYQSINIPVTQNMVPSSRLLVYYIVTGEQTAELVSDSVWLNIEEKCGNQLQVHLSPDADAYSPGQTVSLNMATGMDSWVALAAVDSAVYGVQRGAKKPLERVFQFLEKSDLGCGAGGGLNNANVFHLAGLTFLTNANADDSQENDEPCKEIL
Sequence (P01031 678-1676 limits assumed, chain 2 of 2): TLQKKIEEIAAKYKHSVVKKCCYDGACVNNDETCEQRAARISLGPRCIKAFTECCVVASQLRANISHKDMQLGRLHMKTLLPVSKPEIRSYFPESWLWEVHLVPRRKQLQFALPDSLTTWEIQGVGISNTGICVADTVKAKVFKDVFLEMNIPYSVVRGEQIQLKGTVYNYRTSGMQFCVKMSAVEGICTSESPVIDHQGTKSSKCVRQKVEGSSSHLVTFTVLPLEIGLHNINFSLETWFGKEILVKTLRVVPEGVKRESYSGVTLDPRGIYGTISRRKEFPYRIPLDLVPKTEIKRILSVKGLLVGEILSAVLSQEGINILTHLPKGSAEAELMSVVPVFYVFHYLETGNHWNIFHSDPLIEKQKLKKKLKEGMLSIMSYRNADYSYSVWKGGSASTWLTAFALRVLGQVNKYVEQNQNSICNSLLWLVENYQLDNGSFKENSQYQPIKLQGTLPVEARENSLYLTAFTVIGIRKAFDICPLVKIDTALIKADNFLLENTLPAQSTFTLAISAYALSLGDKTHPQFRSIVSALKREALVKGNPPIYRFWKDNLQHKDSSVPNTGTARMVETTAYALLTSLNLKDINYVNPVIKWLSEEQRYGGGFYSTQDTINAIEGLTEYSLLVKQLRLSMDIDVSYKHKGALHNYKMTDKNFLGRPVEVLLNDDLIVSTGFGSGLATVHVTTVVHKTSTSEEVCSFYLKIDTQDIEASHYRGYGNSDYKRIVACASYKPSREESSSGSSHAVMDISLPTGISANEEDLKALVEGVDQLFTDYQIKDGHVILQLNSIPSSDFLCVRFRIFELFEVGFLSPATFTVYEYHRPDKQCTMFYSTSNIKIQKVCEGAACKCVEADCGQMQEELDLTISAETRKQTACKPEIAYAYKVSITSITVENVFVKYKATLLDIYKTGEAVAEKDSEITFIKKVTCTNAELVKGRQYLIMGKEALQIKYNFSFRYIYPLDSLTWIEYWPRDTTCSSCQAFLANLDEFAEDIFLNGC
Entry rule: numbers only, all in nM.

Indicate the recorded Kd value for this binder: SCPDGFSYRSWDDFCCPMVGRCLAPRN (modifications not checked) [K149B knob domain peptide, chemically synthesised, site-directed disulphides]
269

Find the measured Kd of SCPDGFSYRSWDDFCCPMVGRCLAPRN (modifications not checked) [K149chemFE knob domain peptide] and report it.
5.57
